test-summary: Half life in Beagle dog at 1 mg/kg, iv
Assay type: ADME, organism-based, Canis lupus familiaris
Design: dose 1 mg/kg, route intravenous
conditions-used: in vivo
quantity-measured: half-life (min)
One number for each entry, in min.

I am curious: what half-life value has been reported for CN1CCN(Cc2csc(C(=O)Nc3ccc(Cl)cc3C(=O)Nc3ccc(Cl)cc3)c2Cl)CC1 ? 120

----------
test-summary: Clearance in Beagle dog at 1 mg/kg, iv
Format: ADME, organism-based, Canis lupus familiaris
Design: dose 1 mg/kg, route intravenous
conditions-used: in vivo
quantity-measured: clearance
Please don't drop the unit; write it after the number.

I am curious: what clearance value has been reported for CN1CCN(Cc2csc(C(=O)Nc3ccc(Cl)cc3C(=O)Nc3ccc(Cl)cc3)c2Cl)CC1 ? 5 mL/min/kg
